procedure summary: clinical
Assay type: in vivo
particulars: human, plasma, oral, 500 mg; Subject A, Wash-out day 20; read-out: Levels Plasma
property: concentration at 20 day (wash-out) (nM)
Output spec: scalar in nM, unitless text.

query: What value of concentration at 20 day (wash-out) has been recorded for this entry: `OC(c1ccccc1)(c1ccccc1)c1ccccc1Cl`
result: 0

====

procedure summary: clinical
Format: in vivo
particulars: human, plasma, oral, 500 mg; Subject B, Wash-out day 10; read-out: Levels Plasma
property: concentration at 10 day (wash-out)

query: What value of concentration at 10 day (wash-out) has been recorded for this entry: `OC(c1ccccc1)(c1ccccc1)c1ccccc1Cl`
result: < 100 nM

====

procedure summary: clinical
Format: in vivo
particulars: human, in vivo, 500 mg; Subject A, Wash-out day 13; read-out: Levels Plasma
property: concentration at 13 day (wash-out) (nM)
Output spec: scalar in nM, unitless text.

query: What value of concentration at 13 day (wash-out) has been recorded for this entry: `Clc1ccccc1C(c1ccccc1)c1ccccc1`
result: 0

====

target under test: Gardos channel of erythrocytes (Homo sapiens)
procedure summary: cell-based
property: IC50 (nM)
Output spec: scalar in nM, unitless text.

{"columns": ["molecule", "units label", "IC50"],
 "data": [
  ["OC(c1ccccc1)(c1ccccc1)c1ccccc1Cl [Compound 6, 2-chlorophenyl-diphenylmethanol]", "nM", 961]
]}

query: What value of IC50 has been recorded for this entry: OC(C#Cc1ccccc1)(c1ccccc1)c1ccccc1 [Compound 48]
result: 1290

query: What value of IC50 has been recorded for this entry: OCC(c1ccccc1)(c1ccccc1)c1ccccc1 [Compound 35]
result: 430

query: What value of IC50 has been recorded for this entry: OC(c1ccccc1)(c1ccccc1)c1ccc(Cl)cc1 [Compound 43]
result: 61

query: What value of IC50 has been recorded for this entry: COC(=O)c1ccc(C(O)(c2ccccc2)c2ccccc2)cc1 [Compound 62]
result: 98

query: What value of IC50 has been recorded for this entry: Clc1ccccc1C(c1ccccc1)c1ccccc1 [Compound 17, 2-chlorophenyl-diphenylmethane]
result: 860

query: What value of IC50 has been recorded for this entry: OCCC(c1ccccc1)(c1ccccc1)c1ccccc1 [Compound 22]
result: 302

query: What value of IC50 has been recorded for this entry: OCCC[CH2][Ge]([c]1ccccc1)([c]1ccccc1)[c]1ccccc1 [Compound 72]
result: 1080

query: What value of IC50 has been recorded for this entry: COc1ccc(C(O)(c2ccccc2)c2ccccc2)cc1 [Compound 60]
result: 304

query: What value of IC50 has been recorded for this entry: CCOC(=O)C(C(=O)OCC)C(c1ccccc1)(c1ccccc1)c1ccccc1 [Compound 31]
result: 445

query: What value of IC50 has been recorded for this entry: c1ccc(C(c2ccccc2)c2ccncc2)cc1 [Compound 4]
result: 2860

query: What value of IC50 has been recorded for this entry: OC(c1ccccc1)(c1ccccc1)c1cccc2ccccc12 [Compound 61]
result: 2370

====

procedure summary: clinical
Assay type: in vivo
particulars: human, in vivo, 500 mg; Subject B, Wash-out day 13; read-out: Levels Plasma
property: concentration at 13 day (wash-out) (nM)
Output spec: scalar in nM, unitless text.

query: What value of concentration at 13 day (wash-out) has been recorded for this entry: `Clc1ccccc1C(c1ccccc1)c1ccccc1`
result: 0

====

melting point values by entry

Consider the following illustrative entries.
{"columns": ["molecule", "melting point"],
 "data": [
  ["O=CCC(c1ccccc1)(c1ccccc1)c1ccccc1Cl", "92 to 93 °C"],
  ["N#CC(c1ccccc1)(c1ccccc1)C1CCCCC1", "117.5 to 119 °C"],
  ["NC(=O)C(c1ccccc1)(c1ccccc1)c1ccccc1Cl [Compound 75, (2-chlorophenyl)-diphenylacetamide]", "197 to 198.5 °C"]
]}

Here is another molecule to look at.
query: What value of melting point has been recorded for this entry: `Clc1ccccc1C(c1ccccc1)c1ccccc1`
result: 74 to 76 °C
